system: Ba/F3 P210-BCR-ABL1 RUNX1wt/wt control (mouse); experiment: drug sensitivity score (DSS) (DSS score); higher = more sensitive (stronger growth inhibition); extreme values may be limits of the assay
METRIC: drug sensitivity score
Lab note: record just the number, no unit beside it.

Clc1ccc(C(c2ccccc2Cl)C(Cl)Cl)cc1 (stereo not drawn)    0.35
O=c1[nH]c(=O)n([C@H]2C[C@H](O)[C@@H](CO)O2)cc1C(F)(F)F    8.45
Clc1ccccc1C(c1ccccc1)(c1ccccc1)n1cccn1    0

Query: For C[C@@H]1CN(C(=O)c2ccc(NC(=O)c3cc(O[C@H](C)c4c(Cl)ccc(F)c4Cl)c(N)nn3)cc2)C[C@H](C)N1 , what is its reported drug sensitivity score?
Result: 0

Query: For CNC(=O)[C@@H](NC(=O)[C@H](CC(C)C)[C@H](O)C(=O)NO)C(C)(C)C , what is its reported drug sensitivity score?
Result: 0

Query: For CC[C@@H]1CN(C(=O)NCC(F)(F)F)C[C@@H]1c1cnc2cnc3[nH]ccc3n12 , what is its reported drug sensitivity score?
Result: 5.35

Query: For CC#CC(=O)N1CCC[C@H]1c1nc(-c2ccc(C(=O)Nc3ccccn3)cc2)c2c(N)nccn12 , what is its reported drug sensitivity score?
Result: 0

Query: For CCCc1cc(C)[nH]c(=O)c1CNC(=O)c1cc(-c2ccnc(N3CCN(C)CC3)c2)cc2c1cnn2C(C)C , what is its reported drug sensitivity score?
Result: 0
